Below is a list of entries, each paired with its recorded inhibition value.
# TESTED_TARGET: Sulfonylurea receptor 1, Kir6.2 (Homo sapiens) (UniProt Q14654+Q09428)
# TEST_SUMMARY: Antiarrhythmic effect in hSUR1/hKir6.2 (pancreatic KATP channel) transfected in CHO cells at a dose of 0.1 uM
# Format: functional, cell-based
# CONDITION_LABEL: at 0.1 µM
ENDPOINT: inhibition

SMILES_STRUCTURE	TESTED_TARGET	ENDPOINT	VALUE_OBSERVED
CCCOc1ccc(CCNC(=O)c2cc(Cl)ccc2OC)cc1S(=O)(=O)/N=C(\S)NC	Sulfonylurea receptor 1, Kir6.2 (Homo sapiens) (UniProt Q14654+Q09428)	inhibition	4.2%
CN/C(S)=N/S(=O)(=O)c1cc(CCNC(=O)c2cc(Cl)ccc2OC)c(OC)cc1OC	Sulfonylurea receptor 1, Kir6.2 (Homo sapiens) (UniProt Q14654+Q09428)	inhibition	-1%
CN/C(S)=N/S(=O)(=O)c1cc(CCNC(=O)c2cc(Cl)ccc2OC)ccc1C	Sulfonylurea receptor 1, Kir6.2 (Homo sapiens) (UniProt Q14654+Q09428)	inhibition	1.9%

----------
Below is a list of entries, each paired with its recorded inhibition value.
# TESTED_TARGET: Sulfonylurea receptor 1, Kir6.2 (Homo sapiens) (UniProt Q14654+Q09428)
# TEST_SUMMARY: Antiarrhythmic effect in hSUR1/hKir6.2 (pancreatic KATP channel) transfected in CHO cells at a dose of 10 uM
# Format: functional, cell-based
# CONDITION_LABEL: at 10 µM
ENDPOINT: inhibition (%)

SMILES_STRUCTURE	ENDPOINT	VALUE_OBSERVED
C#Cc1ccc(CCNC(=O)c2cc(Cl)ccc2OC)cc1S(=O)(=O)/N=C(\S)NC	inhibition	27.6
CN/C(S)=N/S(=O)(=O)c1cc(CCNC(=O)c2cc(Cl)ccc2OC)c(OC)cc1OC	inhibition	30.5
CCCc1ccc(CCNC(=O)c2cc(Cl)ccc2OC)cc1S(=O)(=O)/N=C(\S)NC	inhibition	97.1
CN/C(S)=N/S(=O)(=O)c1cc(CCNC(=O)c2cc(Cl)ccc2OC)c(OC)c(C)c1OC	inhibition	47.8
